Parameter: growth. Scope: all listed entries.
- Test system: HOP-62 NSCLC
- protocol_text: NCI-60 one-dose screen, 48 h (100 = growth as untreated, 0 = no growth, -100 = all killed)
- setup_conditions: 10 µM unless noted
This is part of a sample that, as a whole, favours compounds with a hit. Of some 83,000 tested, about 20% had one in any assay.
Kindly answer with a numeric value in %, unit omitted.

These solved cases illustrate the format of a correct answer.
// growth value for COc1nc2c(cc1S(=O)(=O)c1ccccc1)CCc1c-2cnn1Cc1ccccc1 : 56.2

Sample O=C1CC(c2nc3ccccc3s2)CN1C1CCCCC1 (stereo unspecified) ; growth observed: 93.2

Reported growth of Cc1cccc(NC(=O)c2sc3nc4c(cc3c2N)C(=O)CCC4)c1 : 42.9

growth for C=C1C(=O)O[C@H]2[C@H]1CC/C(Cn1cc(Cc3c[nH]c4ccccc34)nn1)=C\CC[C@@]1(C)O[C@@H]21 is 76.7

***
Field growth (entry COc1ccc(C2Nc3ccccc3-n3cccc32)cc1 (stereo unspecified) ) reads 104

Lab note: measured growth of COc1ccc2nc(NC(=O)c3cccnc3Nc3cc(OC)c(OC)c(OC)c3)sc2c1 was 16.7

Field growth (entry N#Cc1c2c(nc3n[nH]c(N)c13)CCCC2 ) reads 100

* * *

- System: SF-268 CNS
- protocol_text: NCI-60 one-dose screen, 48 h (100 = growth as untreated, 0 = no growth, -100 = all killed)
- setup_conditions: 10 µM unless noted
The panel holds about 83,000 compounds, 20% with a hit somewhere; the sample as a whole holds those more often.
Entries annotated with measured growth
Number in %, nothing else.

Examples with their reported growth follow.
Summary: CCCCCn1cnc2c(=S)nc[nH]c21 , SF-268 CNS, growth = 124

The measured growth that CCCCN(CC)CCCCCCCCCCN1CCCc2cc(OC)ccc21 showed for SF-268 CNS is 49.7

// growth (SF-268 CNS) for N#Cc1c2c(nc3n[nH]c(N)c13)CCCC2 = 101

Field growth (SF-268 CNS), entry Nc1cc(O)cc2cccnc12 : 107

// assay SF-268 CNS, entry COc1ccc(/C=N\NC(=O)c2ccncc2)cc1O , growth value = 99

Tested on SF-268 CNS: C=C1CC2(OC1=O)C(=O)N(CCCCCCCCCCCCN1C(=O)C3(CC(=C)C(=O)O3)c3ccccc31)c1ccccc12 (stereo unspecified) . Observed growth: 93

Test item COc1cc(NCCCCCN=C(N)NC(N)=NC(C)C)c2ncccc2c1 ; SF-268 CNS; reported growth was 29

Bench note, SF-268 CNS: entry CNC(=O)c1cc(Oc2ccc3nc(NC(=O)Nc4ccc(CN5CCOCC5)c(C(F)(F)F)c4)sc3c2)ccn1 , its growth = 34.9

***
Tested on SF-268 CNS: Cc1sc2nc3[nH]/c(=C\c4ccc(Cl)cc4)c(=O)n3c(=O)c2c1C . Observed growth: 102

Tested system SF-268 CNS; growth recorded for c1ccc2sc(SCCCn3ccnc3)nc2c1 was 98.4

Tested on SF-268 CNS: COC1C/C(=N\O)C2OC(c3ccccc3)OCC2O1 (stereo unspecified) . Observed growth: 109

* * *

- Tested on: OVCAR-3 ovarian
- protocol_text: NCI-60 one-dose screen, 48 h
- setup_conditions: 10 µM unless noted
Compounds without any hit were thinned out: in the full panel of roughly 83,000, 20% have a hit. The source made the active and inactive calls. The calls were made as follows: active = growth percent below 10; inactive = the rest.
Reply using exactly one outcome from active, inactive

Observe how each entry below is paired with its result.
## Input Any idea what this test logged for CNCCCn1c2c(c3ccc([N+](=O)[O-])cc3c1=O)C(=O)c1cc(OC)cnc1-2 ?
## Output active

## Input What is the recorded call for this compound in the test? COc1nc2c(cc1S(=O)(=O)c1ccccc1)CCc1c-2cnn1-c1ccc(Cl)cc1
## Output inactive

## Input Field: outcome | Entry: CN(C)CC(=O)Nc1ccc(Cn2nnc3c2C(=O)c2nnn(Cc4ccc(NC(=O)CN(C)C)cc4)c2C3=O)cc1
## Output active

## Input // param item: CCN(C(=O)CN1CCN(c2cc3c(cc2F)c(=O)c(C(=O)O)cn3C2CC2)CC1)c1nc(-c2ccc(OC)cc2)cs1 ; yields the recorded call
## Output active

## Input So what was the verdict on CCCCCC(=O)Oc1ccc(/C(=C(\C)c2ccccc2)c2ccc(OCCN(CC)CC)cc2)cc1 in this test?
## Output inactive

## Input Can you look up the reported call for COc1ccccc1/C=C(/C(=O)c1ccccc1)c1ccccc1 for me?
## Output inactive

Continuing:
## Input Could you check what this test reported for C/C=C/C(N)=O ?
## Output inactive

## Input What did the test return for CCC(c1ccc(O)cc1)C(CC)c1ccc(O)c(F)c1 (stereo not given) ?
## Output inactive

## Input // outcome(item) with item = CNC(=O)c1cc(Oc2ccc3nc(NC(=O)Nc4ccc(CN5CCOCC5)c(C(F)(F)F)c4)sc3c2)ccn1
## Output active

## Input Recorded test outcome, item CCOC(=O)c1cnc2ccc(OC)cc2c1Nc1cccc(S(=O)(=O)NC)c1
## Output inactive

## Input Short answer needed: outcome of this test for C[C@@H]1CC[C@@H]2[C@@H]1[C@H](OC(=O)/C=C/c1ccccc1)[C@]1(C3CCCCC3)C[C@@H](OC(=O)CO)[C@@]2(C)O1 ?
## Output inactive

## Input For Clc1ccc(-c2nnc(COc3ccccc3Cl)o2)cc1 , which call appears in the assay record?
## Output inactive

## Input Which outcome was entered for the compound C=C1CCC2C3(C)COC(c4cccc(Cl)c4)OC3CCC2(C)C1/C=C/C1=CCOC1=O (stereo not given) in this test?
## Output inactive

## Input Dear colleague, could you share the recorded outcome for CCOC(=O)CC(C)=N when you have a moment?
## Output inactive

## Input What outcome does the record of this test show for O=C1c2cc3c(cc2-c2c1c1cc(Cl)c(Cl)cc1c(=O)n2C[C@H](O)CO)OCO3 ?
## Output active

## Input Outcome logged for CC(=O)OCC1OC(OC2=C(CC=C(Cl)Cl)C(=O)c3ccccc3C2=O)C(OC(C)=O)C(OC(C)=O)C1OC(C)=O (stereo not given) in this assay:
## Output inactive

## Input For this compound, state the assay outcome: NC1=CC(=O)C(=O)c2ccccc21
## Output inactive

## Input Test call for this compound, please: COc1cccc(/C=C\C(=O)c2ccccc2)c1
## Output active

## Input # outcome recorded in this test, key = Cc1ccc(-c2nc(/C=N/Nc3cc(C)nc4ccc(Br)cc34)c(C)o2)cc1
## Output active

## Input Outcome logged for O=C(O)c1cn(C2CC2)c2cc(N3CCN(Cc4nc5c(cnn5-c5ccc([N+](=O)[O-])cc5)c(=O)[nH]4)CC3)c(F)cc2c1=O in this assay:
## Output inactive

## Input # fetch the recorded call for COCCCNc1nc(NC(=O)c2ccc(F)cc2C)cc(-c2cccnc2)n1 here
## Output inactive

## Input # lookup: test call for CCNS(=O)(=O)c1ncnc2nc[nH]c12
## Output inactive

## Input Dear colleague, could you share the recorded outcome for CC[C@H](Nc1ncnc(N)c1C(N)=O)c1nc2cccc(NCc3ccc(C(=O)NO)cc3)c2c(=O)n1-c1ccccc1 when you have a moment?
## Output inactive

## Input // return assay outcome for Cc1ccc2c(c1)C(=O)c1c-2c(OCCCN(C)C)nc2ccccc12
## Output inactive

## Input Could you please tell me the result logged for CC1=C(NCCN2CCCC2)C(=O)c2c(OCc3ccc(C(F)(F)F)cc3)cccc2C1=O in this assay?
## Output inactive

## Input Could you kindly confirm the outcome this assay logged for CCOC(=O)c1c2c(n3ccc(NC(=O)CCN4CCCCC4)cc13)C(=O)c1ncccc1C2=O ?
## Output active

## Input Please let me know the test result on file for Oc1ccc(Nc2nccc(-c3ccc4ccccc4c3)n2)cc1 .
## Output inactive

## Input For COc1ccc(/C=N\NC(=O)CN2CCN(c3cc4c(cc3F)c(=O)c(C(=O)N/N=C/c3ccc(OC)cc3)cn4C3CC3)CC2)cc1 , what call appears in the results of this test?
## Output inactive

## Input Assay result, entry CCC(=O)Oc1ccc(/C(=C(\C)c2ccccc2)c2ccc(OCCN(CC)CC)cc2)cc1 — outcome?
## Output inactive
